The reported measurements were obtained from ChEMBL document CHEMBL1156405.

test system: HL-60; experiment: Antiproliferative activity against human HL60 cells after 2 days; assay type: functional, cell-based; details: HL-60, 48 h
observed-property: pIC50
Answer as the number alone; pIC50 is minus log10 of concentration in mol/L.

Recorded result, CCCCC[C@@H](C/C=C/CCC(=O)NC/C(=C/Cl)[C@H]1C(=O)C(C)(C)C(=O)[C@@H](C)[C@@]1(C)O)OC [MALYNGAMIDE S] , pIC50: 5.22
